# Test system: M14 melanoma
# protocol: NCI-60 one-dose screen, 48 h (100 = growth as untreated, 0 = no growth, -100 = all killed)
# conditions: 10 µM unless noted
The panel holds about 83,000 compounds, 20% with a hit somewhere; the sample as a whole holds those more often.
Measured growth of individual entries
Please give a number only; it is taken to be in %.

Example entries and their recorded answers appear below.
>>> reportedresult("CCN(CC)c1ccc(C(O)C2=CC(=O)c3ccccc3C2=O)cc1 (stereo not given)")
13.8
>>> reportedresult("Cc1ccc2c(c1)C(=O)/C(=C/c1ncc([N+](=O)[O-])n1C)O2")
-55.8
>>> reportedresult("O=C(Nc1ccc(Cl)cc1)c1cc2c(cc1O)[nH]c1ccccc12")
31
>>> reportedresult("CCOC(=O)c1c(NC(=O)C2CCCCC2C(=O)O)sc2c1CCCC2 (stereo not given)")
106
>>> reportedresult("CC1(C)OC(=O)C(=Cc2ccccc2Br)C(=O)O1")
88
>>> reportedresult("O=C1NC(=O)/C(=C\\c2ccccc2)C2=C1CCCC2")
36.4
>>> reportedresult("O=C(Nc1nc2ccccc2s1)c1cc(-c2ccc(F)cc2)n2nc(-c3ccccc3)cc2n1")
79.2
>>> reportedresult("O=C1Cc2cc(CCN3CCN(CCOCCO)CC3)c(Cl)cc2N1Cc1ccc(-c2ccccc2-c2nn[nH]n2)cc1")
92.6

Exercise: # lookup: growth of O=C(Nc1ccc(Cl)cc1Cl)Nc1ccc(-c2cccnc2)cc1N1CCC(CO)CC1
Solution: 36

Exercise: # lookup: growth of COC(=O)[C@]12CC[C@@H](C)[C@H](C)[C@@H]1C1=CC[C@@H]3[C@@]4(C)C[C@@H](OC(=O)c5ccco5)[C@H](O)[C@@](C)(CO)[C@@H]4[C@H](O)C[C@@]3(C)[C@]1(C)CC2
Solution: -59.5

Recorded values, source PubChem BioAssay (NCI).
